Test system: Saccharomyces cerevisiae
assay_summary: protein stability index of tFT-peptide fusion (C-terminal peptide) (PSI (0-1 scale)); higher = more stable (slower turnover)
condition_notes: genetic background: wild type; temperature: 30 C
Each item that follows carries a reported protein stability index.
Please respond with just the number, no unit label.

Consider the following illustrative entries.
{"columns": ["seq", "obs_value"],
 "data": [
  ["TNGITTERHKKK [NTG2 C-terminal 12 aa]", 0.668],
  ["KDLFASIGKKKL [FYV8 C-terminal 12 aa]", 0.682]
]}

Give the reported protein stability index for this sequence. FGTWEIVIRLLS [RIM2 C-terminal 12 aa] 0.123

Give the reported protein stability index for this sequence. ILNCVGSAKTSG [YBR298C-A C-terminal 12 aa] 0.666

Give the reported protein stability index for this sequence. SDDDVSSESEEE [BDF1 C-terminal 12 aa] 0.658

Give the reported protein stability index for this sequence. LSHAQKEIYEFK [UTP25 C-terminal 12 aa] 0.691

Give the reported protein stability index for this sequence. LRVEWSKPKVKE [TIF35 C-terminal 12 aa] 0.711

----------
Test system: Saccharomyces cerevisiae
assay_summary: protein stability index of tFT-peptide fusion (C-terminal peptide) (PSI (0-1 scale)); higher = more stable (slower turnover)
condition_notes: genetic background: wild type; temperature: 30 C
Quick rule: protein stability index of at least 0.7 means met, below that means not met.

Reference set, count: 10
{"columns": ["seq", "target_desc", "discrete_label"],
 "data": [
  ["GSARLPLWSLPP", "Saccharomyces cerevisiae", "met"],
  ["PHPAPPPNPLVP", "Saccharomyces cerevisiae", "met"],
  ["HRKKTKNVTHVK", "Saccharomyces cerevisiae", "not met"],
  ["VTGGGVGHWGWW", "Saccharomyces cerevisiae", "met"],
  ["HQFRPYPLFTAR", "Saccharomyces cerevisiae", "met"],
  ["PPRSIPLPSPFH", "Saccharomyces cerevisiae", "met"],
  ["SVVFFYPPIFHA", "Saccharomyces cerevisiae", "not met"],
  ["LLPPFPPPSLFS", "Saccharomyces cerevisiae", "not met"],
  ["REKRSVTQSTTD", "Saccharomyces cerevisiae", "met"],
  ["SNRCGRGMRVFA", "Saccharomyces cerevisiae", "not met"]
]}

Threshold query (protein stability index >= 0.7) on RGAEACGGVPGQ not met

Threshold query (protein stability index >= 0.7) on FRLYALAPHSPG not met

Threshold query (protein stability index >= 0.7) on PPPLTYPTSPPS not met

----------
System: Saccharomyces cerevisiae
assay_summary: protein stability index of tFT-peptide fusion (C-terminal peptide) (PSI (0-1 scale)); higher = more stable (slower turnover)
condition_notes: genetic background: cdc53-1; temperature: 37 C
Quick rule: protein stability index of at least 0.4 means 1 (yes), below that means 0 (no).

{"columns": ["seq", "discrete_label"],
 "data": [
  ["VDSTCLLITLLA", "1 (yes)"],
  ["IGMVSELLLFYP", "1 (yes)"]
]}

Threshold query (protein stability index >= 0.4) on LRNVPCLVFFWV 1 (yes)

Threshold query (protein stability index >= 0.4) on NLTAIIYTLVVD 1 (yes)

Threshold query (protein stability index >= 0.4) on VYVRYYVRVVVI 0 (no)

Threshold query (protein stability index >= 0.4) on PVCRQVGVRLVA 1 (yes)

Threshold query (protein stability index >= 0.4) on FVLLSVCFFGCL 1 (yes)

----------
Each item that follows carries a reported protein stability index.
Tested on: Saccharomyces cerevisiae
assay_summary: protein stability index of tFT-peptide fusion (C-terminal peptide) (PSI (0-1 scale)); higher = more stable (slower turnover)
condition_notes: genetic background: wild type; temperature: 30 C
Please respond with just the number, no unit label.

Consider the following illustrative entries.
{"columns": ["seq", "protein stability index"],
 "data": [
  ["CYCPPPGMPVPF", 0.736],
  ["MWLGSGCWVNGL", 0.735],
  ["GGDGGLVMGGGN", 0.684],
  ["MGGKGRGGRREI", 0.666],
  ["RVSWGSTRLSRA", 0.643]
]}

Recall the reported protein stability index of AGGTMVVVVRSC on Saccharomyces cerevisiae and write it down. 0.512

Recall the reported protein stability index of GWCPNRRSGVWV on Saccharomyces cerevisiae and write it down. 0.728

Recall the reported protein stability index of AGAGRGVVLGWW on Saccharomyces cerevisiae and write it down. 0.684

Recall the reported protein stability index of HVPPVFQASLSP on Saccharomyces cerevisiae and write it down. 0.747

Recall the reported protein stability index of ILSMSQPHPILS on Saccharomyces cerevisiae and write it down. 0.617

----------
System: Saccharomyces cerevisiae
assay_summary: protein stability index of tFT-peptide fusion (C-terminal peptide) (PSI (0-1 scale)); higher = more stable (slower turnover)
condition_notes: genetic background: wild type; temperature: 30 C
measured_metric: protein stability index
Please respond with just the number, no unit label.

Consider the following illustrative entries.
{"columns": ["seq", "obs_value"],
 "data": [
  ["KMGQSFNAAGKF [TIM10 C-terminal 12 aa]", 0.683],
  ["WSNNDDMEQNPW [YPR089W C-terminal 12 aa]", 0.713],
  ["YVASHESQKADE [RRP5 C-terminal 12 aa]", 0.741]
]}

Give the reported protein stability index for this sequence. KGMKRLDYRFIH [SOA1 C-terminal 12 aa] 0.234

Give the reported protein stability index for this sequence. NHSSSGNKHDEL [MPD1 C-terminal 12 aa] 0.686

Give the reported protein stability index for this sequence. LFMNAVIKTFKK [DGK1 C-terminal 12 aa] 0.7

Give the reported protein stability index for this sequence. KGRYVNSSKRRS [NOB1 C-terminal 12 aa] 0.678

Give the reported protein stability index for this sequence. IIGALNLYDGLI [FRQ1 C-terminal 12 aa] 0.763

Give the reported protein stability index for this sequence. LLRKLSMKRPFS [APL1 C-terminal 12 aa] 0.682

Give the reported protein stability index for this sequence. LRRSFAIYTLGH [MCM2 C-terminal 12 aa] 0.656

Give the reported protein stability index for this sequence. LQLFVNLGCPLS [YDR455C C-terminal 12 aa] 0.683

Give the reported protein stability index for this sequence. YAYMLYYERVNK [UBP16 C-terminal 12 aa] 0.675

----------
Test system: Saccharomyces cerevisiae
assay_summary: protein stability index of tFT-peptide fusion (C-terminal peptide) (PSI (0-1 scale)); higher = more stable (slower turnover)
condition_notes: genetic background: wild type; temperature: 30 C
measured_metric: protein stability index
Please respond with just the number, no unit label.

{"columns": ["seq", "protein stability index"],
 "data": [
  ["LSVMKLFVMVGP", 0.377],
  ["GFRVTTCASWIC", 0.15],
  ["RTALSSPRPALL", 0.723],
  ["LPPFLSSLPSSP", 0.663],
  ["GFGRRGQFGGTG", 0.567]
]}

Give the reported protein stability index for this sequence. LLSGHFRLLLAF 0.0945

Give the reported protein stability index for this sequence. WFSVRQLVFVSG 0.163

----------
System: Saccharomyces cerevisiae
assay_summary: protein stability index of tFT-peptide fusion (C-terminal peptide) (PSI (0-1 scale)); higher = more stable (slower turnover)
condition_notes: genetic background: wild type; temperature: 30 C
Quick rule: protein stability index of at least 0.7 means rule met, below that means rule not met.

{"columns": ["seq", "discrete_label"],
 "data": [
  ["LPRRSSRRQYAA", "rule met"]
]}

Threshold query (protein stability index >= 0.7) on WPLPRPEFCGAP rule not met

Threshold query (protein stability index >= 0.7) on STPLPPPTPLPA rule met

Threshold query (protein stability index >= 0.7) on FLGCFIPLPCTP rule not met

Threshold query (protein stability index >= 0.7) on GGRDVGEMVDLQ rule met

Threshold query (protein stability index >= 0.7) on SGVLASSCPSSC rule not met

----------
System: Saccharomyces cerevisiae
assay_summary: protein stability index of tFT-peptide fusion (C-terminal peptide) (PSI (0-1 scale)); higher = more stable (slower turnover)
condition_notes: genetic background: das1 deletion; temperature: 30 C
Each item that follows carries a reported protein stability index.
Please respond with just the number, no unit label.

Consider the following illustrative entries.
{"columns": ["seq", "obs_value"],
 "data": [
  ["LQPWEGRLYLLK [IMA5 C-terminal 12 aa]", 0.698],
  ["NADDPSYYHYLS [CUL3 C-terminal 12 aa]", 0.706],
  ["YINDISRTWNAN [MNT3 C-terminal 12 aa]", 0.68],
  ["VNERSHDVKFTK [YIL165C C-terminal 12 aa]", 0.686]
]}

Give the reported protein stability index for this sequence. RSFVTRFLHFWC [HIP1 C-terminal 12 aa] 0.777

Give the reported protein stability index for this sequence. PIQQSIAHINPP [LDS2 C-terminal 12 aa] 0.718

----------
System: Saccharomyces cerevisiae
assay_summary: protein stability index of tFT-peptide fusion in deletion strain of DOA10 (PSI (0-1 scale)); higher = more stable (slower turnover)
Each item that follows carries a reported protein stability index.
Please respond with just the number, no unit label.

{"columns": ["seq", "target_desc", "protein stability index"],
 "data": [
  ["GLYMCSPGCWFR", "Saccharomyces cerevisiae", 0.679],
  ["CLVSLPILLHFR", "Saccharomyces cerevisiae", 0.655],
  ["RVTRVDAIYFRI", "Saccharomyces cerevisiae", 0.68],
  ["AITLPMCPLLER", "Saccharomyces cerevisiae", 0.741],
  ["RVTRLDAIYFRIG", "Saccharomyces cerevisiae", 0.408]
]}

Give the reported protein stability index for this sequence. RSLRVLNPLYFR 0.684

Give the reported protein stability index for this sequence. AITLQMCPLLLR 0.619

Give the reported protein stability index for this sequence. DLYMCSVGCWFR 0.697

Give the reported protein stability index for this sequence. AITLPMCVLLLR 0.608

Give the reported protein stability index for this sequence. GLYMCAVGCWFR 0.54
